Cited source for all entries: patent US12139520B2

Target: hAM1R (human, UniProt Q16602)
Assay: cell-based or functional assay
Bridge positions count the residues as written; N and C are the ends. Square brackets hold non-standard residues; d marks the D form. Ends that are not written are not given here. Hyp = O=C(O)[C@@H]1C[C@@H](O)CN1; Cit = NC(=O)NCCC[C@H](N)C(=O)O
READOUT_LABEL: hAM1R EC50 (cAMP) (µM)
// return numeric value only (unit: µM, not printed)

The recorded hAM1R EC50 (cAMP) for entry KCNTATCTVQ[Cit]LAHQIYQFTDKDKDNVAPRTKVGSNG[Hyp]-NH2 (disulfide 2-7 (inferred); ends not checked) [SEQ ID NO: 248] equals 3.59
